target-or-test-system: PKC theta (Homo sapiens)
Sequence (Q04759 whole entry): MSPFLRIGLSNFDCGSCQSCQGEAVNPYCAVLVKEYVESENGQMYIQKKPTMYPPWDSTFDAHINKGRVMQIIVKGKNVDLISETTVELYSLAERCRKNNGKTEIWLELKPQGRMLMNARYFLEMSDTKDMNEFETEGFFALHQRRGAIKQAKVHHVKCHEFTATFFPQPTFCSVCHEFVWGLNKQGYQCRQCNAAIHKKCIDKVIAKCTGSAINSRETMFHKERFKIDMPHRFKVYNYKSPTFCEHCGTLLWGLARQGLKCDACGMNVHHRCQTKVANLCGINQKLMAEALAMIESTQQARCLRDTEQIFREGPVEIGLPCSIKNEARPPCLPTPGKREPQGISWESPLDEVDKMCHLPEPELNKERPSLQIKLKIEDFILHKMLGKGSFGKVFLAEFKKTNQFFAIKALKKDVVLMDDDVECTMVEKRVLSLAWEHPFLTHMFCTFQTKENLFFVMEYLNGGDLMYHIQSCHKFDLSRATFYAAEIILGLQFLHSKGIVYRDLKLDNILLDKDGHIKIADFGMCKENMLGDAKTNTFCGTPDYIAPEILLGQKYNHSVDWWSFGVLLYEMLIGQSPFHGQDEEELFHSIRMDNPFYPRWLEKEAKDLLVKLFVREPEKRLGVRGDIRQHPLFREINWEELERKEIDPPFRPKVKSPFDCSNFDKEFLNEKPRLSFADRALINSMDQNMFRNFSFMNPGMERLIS
pIC50: −log10 of the molar value.
Lab note: anything with pIC50 at or over 8 counts as 1; the rest go in -1.

Worked examples follow.
Check this compound for pIC50 at or above 8: CC(=O)N1C(C)CN(c2cc(Nc3ncc(F)c(NC4CC(C)(C)N(C)C(C)(C)C4)n3)ccc2Cl)CC1C (stereo not shown)
-1

Is pIC50 at least 8? Consider COc1cc(Nc2ncc(Cl)c(NC3CC(C)(C)N(C)C(C)(C)C3)n2)cc(OC)c1
1

Threshold query (pIC50 >= 8) on Cc1ccc(Nc2ncc(F)c(NC3CC(C)(C)NC(C)(C)C3)n2)cc1-n1cnnn1
1

Kindly determine if pIC50 recorded for CN1C(C)(C)CC(Nc2nc(Nc3ccc(S(N)(=O)=O)cc3)ncc2F)CC1(C)C is above or exactly 8.
-1

Does Cc1cc(Nc2ncc(F)c(NC3CC(C)(C)N(C)C(C)(C)C3)n2)ccc1-c1cccnc1 have a reported pIC50 of at least 8?
-1

***
pIC50 >= 8 for CN1CCN(c2ccc(Nc3ncc(F)c(NC4CC(C)(C)N(C)C(C)(C)C4)n3)cc2C(F)(F)F)CC1 ?
1

====

The compounds listed here are annotated with their pIC50.
Tested on: Human primary T cells
method: IL-2 ELISA, Human Primary T Cell, Anti-CD3+CD28+ (Example 3)
Format: cell-based
cond: Homo sapiens, T-cell, 24 h, anti-CD3+CD28 stimulation
Scale: pIC50 equals -log10([C]), with [C] in mol/L.

State its pIC50: CN1C(C)(C)CC(Nc2nc(Nc3nc(C(F)(F)F)co3)ncc2F)CC1(C)C
4.80

***
# return recorded pIC50 for input CC(C)n1c(=O)oc2cc(Nc3ncc(C#N)c(NC4CC(C)(C)NC(C)(C)C4)n3)ccc21
5.95

Give me measured pIC50, please, for this compound: CC1(C)CC(Nc2nc(Nc3cccc(C#N)c3)ncc2F)CC(C)(C)N1
6.29

Name the recorded pIC50 of the item CN1C(C)(C)CC(Nc2ccnc(Nc3cccc(C#N)c3)n2)CC1(C)C in your answer.
6.09

====

Reported pIC50 values, PKC theta (Homo sapiens, UniProt Q04759).
For clarity, pIC50 is expressed as the negative log10 of concentration in mol/L.

Observe how each entry below is paired with its result.
For CN1C(C)(C)CC(Nc2nc(Nc3ccc(N4CCSCC4)c(C#N)c3)ncc2F)CC1(C)C , write its pIC50.
8.54

Give the value of pIC50 reported for the following: CN1C(=O)C(C)(C)Oc2cc(Nc3ncc(F)c(NC4CC(C)(C)N(C)C(C)(C)C4)n3)ccc21
7.80

Look up pIC50 of CN1C(C)(C)CC(Nc2nc(Nc3ccc(N4CCN(S(C)(=O)=O)CC4)c(C(F)(F)F)c3)ncc2F)CC1(C)C and report it.
7.47

Please report pIC50 for the following compound: Cc1ccc(Nc2ncc(F)c(NC3CC(C)(C)N(C)C(C)(C)C3)n2)cc1-c1cnn(C)c1
7.84

Using the record for CN1C(C)(C)CC(Nc2nc(Nc3cccc(-c4ccoc4)c3)ncc2F)CC1(C)C , state its measured pIC50.
7.59

Return pIC50 for the following compound: CCN1C(=O)C(F)(F)Oc2cc(Nc3ncc(F)c(NC4CC(C)(C)N(C)C(C)(C)C4)n3)ccc21
8.87

Please look at the following compound next.
Output measured pIC50 for this item: COc1cc(Nc2ncc(F)c(NC3CC(C)(C)N(C)C(C)(C)C3)n2)cc(-n2cnnn2)c1
9.02

====

System: Human primary T cells
method: IL-2 ELISA, Human Primary T Cell, Anti-CD3+CD28+ (Example 3)
Type: cell-based
cond: Homo sapiens, T-cell, 24 h, anti-CD3+CD28 stimulation
Use IC50 to assign classes; range list: small value: < 300 nM; mid value: ≥ 300 nM and < 3000 nM; large value: ≥ 3000 nM

Some entries whose results are on file:
Exercise: read the entry CN1C(=O)COc2cc(Nc3ncc(F)c(NC4CC(C)(C)N(C)C(C)(C)C4)n3)ccc21 and state which class it falls under.
small value

Please report the category associated with CN1CCc2cc(Nc3ncc(F)c(NC4CC(C)(C)N(C)C(C)(C)C4)n3)ccc21 , nothing else.
large value

New cases:
Which bin, given its IC50, does COc1cc(Nc2ncc(F)c(N(Cc3ccc4ccccc4n3)C3CC(C)(C)N(C)C(C)(C)C3)n2)cc(OC)c1 occupy?
large value

Which category fits this record: Cc1ccc(Nc2ncc(F)c(N(Cc3ccc4ccccc4n3)C3CC(C)(C)N(C)C(C)(C)C3)n2)cc1C#N
large value

Given CN(C)c1ccc(-c2ccc(Nc3ncc(F)c(NC4CC(C)(C)NC(C)(C)C4)n3)cc2C#N)cn1 , name the class its IC50 places it in.
mid value

Form: Item = CN1C(=O)C(F)(F)Oc2cc(Nc3ncc(Cl)c(NC4CC(C)(C)N(C)C(C)(C)C4)n3)ccc21 ; Class = ?
mid value

State the class of the compound shown: CN1C(C)(C)CC(Nc2nc(Nc3ccc4c(n3)NCCO4)ncc2F)CC1(C)C
large value

====

Test system: Human primary T cells
method: IL-2 ELISA, Human Primary T Cell, Anti-CD3+CD28+ (Example 3)
Assay type: cell-based
cond: T-cell, anti-CD3+CD28 stimulation, 24 hours
reported-metric: pIC50
Field pIC50 (float): negative decimal logarithm of the concentration in molar.

// below: answered compounds
Give recorded pIC50. COc1cc(Nc2ncc(C#C[Si](C)(C)C)c(NC3CC(C)(C)N(C)C(C)(C)C3)n2)cc(OC)c1 [Compound I-430]
5.35

Specify reported pIC50 for the compound shown: CN1C(C)(C)CC(Nc2nc(Nc3ccc4c(c3)OCCO4)ncc2C#C[Si](C)(C)C)CC1(C)C [II-150]
5.45

Could you please provide reported pIC50 for CN1C(C)(C)CC(N(Cc2ccccc2)c2nc(Nc3ccc4c(c3)OCCO4)ncc2F)CC1(C)C [II-86] ? Thanks!
5.90

---
Give reported pIC50 value for CCN1C(=O)C(C)(C)Oc2cc(Nc3ncc(C#C[Si](C)(C)C)c(NC4CC(C)(C)N(C)C(C)(C)C4)n3)ccc21 [II-151]
5.90

====

Test system: Human primary T cells
method: IL-2 ELISA, Human Primary T Cell, Anti-CD3+CD28+ (Example 3)
Assay type: cell-based
cond: Homo sapiens, T-cell, 24 h, anti-CD3+CD28 stimulation
Entries are sorted into classes by IC50 as follows: low: < 200 nM; mid: ≥ 200 nM and < 2000 nM; high: ≥ 2000 nM

Hi, small favor: classify CN1C(C)(C)CC(Nc2nc(Nc3ccc4c(c3)oc(=O)n4C)ncc2F)CC1(C)C by its IC50 when you get a moment.
mid

Kindly identify the class of CCN1C(=O)C(C)(C)Oc2cc(Nc3ncc(C#N)c(NC4CC(C)(C)N(C)C(C)(C)C4)n3)ccc21 .
low

====

Here, each record is paired with measured pIC50 data.
Tested on: Human primary T cells
method: IL-2 ELISA, Human Primary T Cell, Anti-CD3+CD28+ (Example 3)
Format: cell-based
cond: Homo sapiens, T-cell, 24 h, anti-CD3+CD28 stimulation
Convention used: pIC50 is expressed as -log10 of the molar concentration.

Below: 2 molecules and their reported pIC50.
Annotate the molecule CN1C(C)(C)CC(Nc2nc(Nc3ccc4c(c3)CC(=O)NO4)ncc2F)CC1(C)C [II-3] with its measured pIC50.
5.73

Give recorded pIC50. CN1C(C)(C)CC(Nc2nc(Nc3ccc(N4CCN(S(C)(=O)=O)CC4)c(OC(F)F)c3)ncc2F)CC1(C)C [Compound I-238]
6.94

In the following, a different molecule is considered.
Return value of pIC50 for input COc1ccc(Nc2ncc(F)c(NC3CC(C)(C)N(C)C(C)(C)C3)n2)cc1Br [Compound I-159] , no commentary.
6.53

====

System: Human primary T cells
method: IL-2 ELISA, Human Primary T Cell, Anti-CD3+CD28+ (Example 3)
Format: cell-based
cond: Homo sapiens, T-cell, 24 h, anti-CD3+CD28 stimulation
Measured pIC50 accompanies every entry in the list below.
Hey, just a heads up that pIC50 is the negative log base 10 of the concentration in molar.

Solved entries:
Look up and state reported pIC50 for CN1C(=O)c2ccc(Nc3ncc(F)c(NC4CC(C)(C)N(C)C(C)(C)C4)n3)cc2C1=O
6.00

Consider the compound CN1C(C)(C)CC(Nc2nc(Nc3ccc(-c4ccc(N5CCOCC5)nc4)c(C#N)c3)ncc2F)CC1(C)C . State its measured pIC50.
6.18

Others:
Specify measured pIC50 for CN1C(C)(C)CC(N(Cc2ccc3ccccc3c2)c2nc(Nc3ccc4c(c3)OCCO4)ncc2F)CC1(C)C .
5.42

Report pIC50 for COc1cc(Nc2ncc(F)c(NC3CC(C)(C)NC(C)(C)C3)n2)cc(OCCN2CCCC2)c1
6.26

In one line, give reported pIC50 of the entry CCCN1CCN(c2cc(Nc3ncc(F)c(NC4CC(C)(C)N(C)C(C)(C)C4)n3)ccc2C(F)(F)F)CC1 .
6.67

Tell me pIC50 reported for COc1ccc(Nc2ncc(C#N)c(NC3CC(C)(C)N(C)C(C)(C)C3)n2)cc1Cl
6.46

Please look at this compound and report its pIC50: COC(=O)C(C)N1C(C)(C)CC(Nc2nc(Nc3ccc(C)c(C#N)c3)ncc2F)CC1(C)C (stereo not shown)
5.98
